Molecular target: HLA-A*0203 (human)
Assay: competition with 125I probe peptide on purified HLA, gel filtration
observationType: IC50 (nM)
Write the number in nM without appending the unit.

Lookup result for TVSGLQMAV [Peptide 60.0213 TVSGLQMAV (PAP.292.V9)] ; measured IC50: 122
